Data provenance is ChEMBL document CHEMBL1153156.

target: UniProtKB P06239; assay: Inhibition of human recombinant Lck expressed in insect cells by Packard topcount method
OBSERVATION_TYPE: C50 (nM)

SMILES_CODE	TARGET_OR_TEST_SYSTEM	OBSERVATION_TYPE	MEAS_VALUE
NC(=O)c1c(-c2ccc(Oc3ccccc3)cc2)[nH]c(C(=O)c2cccc(Cl)c2)c1N	UniProtKB P06239	C50	6.3

P = NC(=O)c1c(-c2ccc(Oc3ccccc3)cc2)[nH]c(C(=O)c2cc(Cl)cc(Cl)c2)c1N
Q = NC(=O)c1c(-c2ccc(Oc3ccccc3)cc2)[nH]c(C(=O)c2ccc(Cl)cc2)c1N
R = NC(=O)c1c(-c2ccc(NCc3cc(Cl)ccc3Cl)cc2)[nH]c(C(=O)c2c(F)cccc2F)c1N
Order each entry by recorded C50, climbing from the minimum. Returns: the labels arranged in the requested order.
Q, P, R
(Q: 7 nM, P: 38 nM, R: 93 nM)

====

target: RAC-alpha serine/threonine-protein kinase (Homo sapiens, UniProt P31749)
Sequence (P31749 whole entry): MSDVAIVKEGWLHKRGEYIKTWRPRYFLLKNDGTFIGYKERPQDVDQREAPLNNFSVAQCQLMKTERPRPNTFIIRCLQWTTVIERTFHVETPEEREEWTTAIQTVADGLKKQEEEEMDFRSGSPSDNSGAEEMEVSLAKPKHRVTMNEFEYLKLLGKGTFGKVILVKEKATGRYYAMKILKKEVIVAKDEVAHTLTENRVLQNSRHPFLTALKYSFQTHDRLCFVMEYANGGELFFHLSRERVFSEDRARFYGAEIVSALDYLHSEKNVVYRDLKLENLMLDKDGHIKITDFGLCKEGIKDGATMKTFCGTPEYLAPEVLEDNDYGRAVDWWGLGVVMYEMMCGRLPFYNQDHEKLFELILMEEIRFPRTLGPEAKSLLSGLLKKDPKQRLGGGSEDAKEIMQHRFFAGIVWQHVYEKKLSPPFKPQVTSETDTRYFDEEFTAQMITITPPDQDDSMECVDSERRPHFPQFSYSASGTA
OBSERVATION_TYPE: IC50

# value of IC50, RAC-alpha serine/threonine-protein kinase (Homo sapiens, UniProt P31749), item "NC(=O)c1c(-c2ccc(Oc3ccccc3)cc2)[nH]c(C(=O)c2c(F)cccc2F)c1N" = > 10 µM

====

biological target: Tyrosine-protein kinase Lck (Homo sapiens) (UniProt P06239); assay: Inhibition of human recombinant Lck expressed in insect cells by Packard topcount method
Sequence (P06239 2-509 limits assumed): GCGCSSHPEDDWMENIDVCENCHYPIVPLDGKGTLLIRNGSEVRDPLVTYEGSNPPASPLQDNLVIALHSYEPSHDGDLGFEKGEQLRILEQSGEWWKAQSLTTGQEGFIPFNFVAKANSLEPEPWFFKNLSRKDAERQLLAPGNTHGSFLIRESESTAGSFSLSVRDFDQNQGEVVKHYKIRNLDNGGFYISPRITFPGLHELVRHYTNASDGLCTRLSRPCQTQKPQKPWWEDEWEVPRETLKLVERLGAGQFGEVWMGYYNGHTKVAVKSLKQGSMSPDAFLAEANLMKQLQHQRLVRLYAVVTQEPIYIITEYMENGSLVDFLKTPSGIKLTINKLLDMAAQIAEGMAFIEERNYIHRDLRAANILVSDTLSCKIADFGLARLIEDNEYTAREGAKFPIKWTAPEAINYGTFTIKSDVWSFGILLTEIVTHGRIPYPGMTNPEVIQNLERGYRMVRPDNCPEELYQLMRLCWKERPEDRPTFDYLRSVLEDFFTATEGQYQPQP
OBSERVATION_TYPE: C50 (nM)

A = NC(=O)c1c(-c2ccc(Oc3ccccc3)cc2)[nH]c(C(=O)c2ccc(Oc3ccccc3)cc2)c1N
B = CN(Cc1c(Cl)cccc1Cl)c1ccc(-c2[nH]c(C(=O)c3c(F)cccc3F)c(N)c2C(N)=O)cc1
C = NC(=O)c1c(-c2ccc(Oc3ccccc3)cc2)[nH]c(C(=O)c2c(F)cccc2F)c1N
D = NC(=O)c1c(-c2ccc(Oc3ccccc3)cc2)[nH]c(C(=O)c2cc(Cl)ccc2Cl)c1N
E = Cc1ccc(C(=O)c2[nH]c(-c3ccc(Oc4ccccc4)cc3)c(C(N)=O)c2N)cc1
Ascending sort, C50. Returns: the labels arranged in the requested order.
C, E, D, A, B

====

biological target: Tyrosine-protein kinase Lck (Homo sapiens); assay: Inhibition of human recombinant Lck expressed in insect cells by Packard topcount method
OBSERVATION_TYPE: C50 (nM)

SMILES_CODE	C50, nM
NC(=O)c1c(-c2ccc(Oc3ccccc3)cc2)[nH]c(C(=O)c2ccccc2)c1N	11
NC(=O)c1c(-c2ccc(Oc3ccccc3)cc2)[nH]c(C(=O)c2c(F)cc(F)cc2F)c1N	1.8
NC(=O)c1c(-c2ccc(Oc3ccccc3)cc2)[nH]c(C(=O)c2ccc(Br)cc2)c1N	5.9
NC(=O)c1c(-c2ccc(Oc3ccccc3)cc2)[nH]c(C(=O)c2cccc(F)c2)c1N	5
NC(=O)c1c(-c2ccc(Oc3ccccc3)cc2)[nH]c(C(=O)c2ccc(F)cc2)c1N	10

1 = Cc1ccc(C)c(C(=O)c2[nH]c(-c3ccc(Oc4ccccc4)cc3)c(C(N)=O)c2N)c1
2 = NC(=O)c1c(-c2ccc(Oc3ccccc3)cc2)[nH]c(C(=O)c2cccc(Cl)c2Cl)c1N
Short answer wanted: higher C50, 1 or 2 ? // return label of chosen record
1

I = NC(=O)c1c(-c2ccc(NCc3ccccc3)cc2)[nH]c(C(=O)c2c(F)cccc2F)c1N
II = Cc1ccc(C(=O)c2[nH]c(-c3ccc(Oc4ccccc4)cc3)c(C(N)=O)c2N)c(C)c1
III = NC(=O)c1c(-c2ccc(NCc3c(Cl)cccc3Cl)cc2)[nH]c(C(=O)c2c(F)cccc2F)c1N
IV = Cc1ccccc1C(=O)c1[nH]c(-c2ccc(Oc3ccccc3)cc2)c(C(N)=O)c1N
Returns the items ordered by C50, from maximum to minimum. Returns: the labels arranged in the requested order.
I, IV, II, III
(I: 6.4 nM, IV: 2.7 nM, II: 1.8 nM, III: 0.92 nM)

====

molecular target: Tyrosine-protein kinase Lck (Homo sapiens) (UniProt P06239); experiment: Inhibition of human recombinant Lck expressed in insect cells by Packard topcount method
OBSERVATION_TYPE: C50

Here is how some compounds turned out for C50.
SMILES_CODE	C50
NC(=O)c1c(-c2ccc(Oc3ncccn3)cc2)[nH]c(C(=O)c2c(F)cccc2F)c1N	> 100 nM
NC(=O)c1c(-c2ccc(OCc3c(Cl)cccc3Cl)cc2)[nH]c(C(=O)c2c(F)cccc2F)c1N	> 100 nM
NC(=O)c1c(-c2ccc(Oc3ccccc3)cc2)[nH]c(C(=O)c2ccc(Cl)cc2Cl)c1N	2.3 nM

# next compound below
# value of C50, Tyrosine-protein kinase Lck (Homo sapiens) (UniProt P06239), item "NC(=O)c1c(-c2ccc(NC(=O)c3ccccc3)cc2)[nH]c(C(=O)c2c(F)cccc2F)c1N" = > 100 nM
